# test-system: Orexin receptor type 2 (Homo sapiens, UniProt O43614)
# Sequence (O43614 whole entry): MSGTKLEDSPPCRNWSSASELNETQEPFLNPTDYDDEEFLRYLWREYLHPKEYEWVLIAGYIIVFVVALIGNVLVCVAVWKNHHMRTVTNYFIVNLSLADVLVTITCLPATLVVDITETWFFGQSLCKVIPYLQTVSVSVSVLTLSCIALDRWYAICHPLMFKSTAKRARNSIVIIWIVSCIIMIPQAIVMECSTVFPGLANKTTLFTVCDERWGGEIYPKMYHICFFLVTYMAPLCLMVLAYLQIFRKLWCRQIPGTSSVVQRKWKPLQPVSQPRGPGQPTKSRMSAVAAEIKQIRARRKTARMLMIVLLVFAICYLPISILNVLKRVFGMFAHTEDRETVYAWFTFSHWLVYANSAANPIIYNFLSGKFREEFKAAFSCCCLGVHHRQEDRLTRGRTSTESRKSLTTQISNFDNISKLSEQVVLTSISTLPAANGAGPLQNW
# experiment-notes: Evaluation of Activity for OX1R and OX2R: HEK293 (human embryonic kidney 293) cells with forced expression of human OX1R (hOX1R) or human OX2R (hOX2R) were seeded in a 384-well microplate (Greiner) at 10,000 per well and cultured for 1 day in high-glucose-DMEM (FujiFilm Corp.—Wako Pure Chemical Industries, Ltd.) containing added 10% FBS (Tenno Scientific) and 1% Penicillin-Streptomycin (FujiFilm Corp.—Wako Pure Chemical Industries, Ltd.). After removing the medium, 40 μL of assay buffer (20 mM HEPES (Sigma-Aldrich Japan, KK.), Hanks' balanced salt solution (Gibco), 0.1% BSA (Sigma-Aldrich Japan, KK.), 0.1% Pluronic F-127 (Invitrogen)) containing Calcium 4 dye (Molecular Device Corporation) and 2.5 mM probenecid (Sigma-Aldrich Japan, KK.) were added, and the plate was incubated for 60 minutes. After further adding 20 μL of assay buffer, 20 μL of assay buffer containing the test compound was added and reaction was initiated. Change in intracellular calcium ion concentration during the reaction was measured based on the fluorescence intensity ratio in terms of the fluorescence value with wavelength excitation at 480 nm and detection at 540 nm, using FDSS7000 (Hamamatsu Photonics, K.K.). The test compound was dissolved in DMSO to 10 mM, and diluted with assay buffer to a final concentration of from 3×10−11 M to 1×10−7 M (DMSO final concentration of 0.1%). The half maximal effective concentration (EC50 value) was determined from the fluorescence value with addition of the test compound at different concentrations, with the fluorescence value of the well with compound-free buffer added as 0%, and the fluorescence value of the well with 10 nM OX-A (Peptide Research Lab) as 100%.
outcome-measure: pEC50
The meaning of pEC50 here: minus log10 of the concentration in molar units.

Item CO[C@@H]1CN(c2ncc(F)cn2)CC[C@@H]1[C@@H]1C[C@H]2CC[C@@H](C1)N2[C@@H](C(N)=O)C(C)C has what recorded pEC50?
8.51

Values from ChEMBL document CHEMBL5729407
